# experimental-parameters: in ethanol, 303.15 K
measurement-name: solubility (mole fraction)

1. O=C(N[C@@H](Cc1c[nH]c2ccccc12)C(=O)O)OCc1ccccc1	0.124

* * *

# experimental-parameters: in ethanol, 318.15 K
measurement-name: solubility (mole fraction)

1) O=C(N[C@@H](Cc1c[nH]c2ccccc12)C(=O)O)OCc1ccccc1	0.189

* * *

# experimental-parameters: in n-butanol, 293.15 K
measurement-name: solubility (mole fraction)

1. O=C(N[C@@H](Cc1c[nH]c2ccccc12)C(=O)O)OCc1ccccc1	0.0334

* * *

# experimental-parameters: in acetonitrile, 308.15 K
measurement-name: solubility (mole fraction)

1) O=C(N[C@@H](Cc1c[nH]c2ccccc12)C(=O)O)OCc1ccccc1	0.0766

* * *

# experimental-parameters: in n-butanol, 313.15 K
measurement-name: solubility (mole fraction)

1) O=C(N[C@@H](Cc1c[nH]c2ccccc12)C(=O)O)OCc1ccccc1	0.0784

* * *

# experimental-parameters: in n-pentanol, 293.15 K
measurement-name: solubility (mole fraction)

1. O=C(N[C@@H](Cc1c[nH]c2ccccc12)C(=O)O)OCc1ccccc1	0.0252

* * *

# experimental-parameters: in acetone, 308.15 K
measurement-name: solubility (mole fraction)

1) O=C(N[C@@H](Cc1c[nH]c2ccccc12)C(=O)O)OCc1ccccc1	0.409

* * *

# experimental-parameters: in n-pentanol, 288.15 K
measurement-name: solubility (mole fraction)

1. O=C(N[C@@H](Cc1c[nH]c2ccccc12)C(=O)O)OCc1ccccc1	0.0209

* * *

# experimental-parameters: in n-butanol, 303.15 K
measurement-name: solubility (mole fraction)

1) O=C(N[C@@H](Cc1c[nH]c2ccccc12)C(=O)O)OCc1ccccc1	0.0526

* * *

# experimental-parameters: in isopropanol, 308.15 K
measurement-name: solubility (mole fraction)

1) O=C(N[C@@H](Cc1c[nH]c2ccccc12)C(=O)O)OCc1ccccc1	0.08

* * *

# experimental-parameters: in water, 288.15 K
measurement-name: solubility (mole fraction)

1. O=C(N[C@@H](Cc1c[nH]c2ccccc12)C(=O)O)OCc1ccccc1	5.32e-05

* * *

# experimental-parameters: in 2-butanone, 303.15 K
measurement-name: solubility (mole fraction)

1. O=C(N[C@@H](Cc1c[nH]c2ccccc12)C(=O)O)OCc1ccccc1	0.173

* * *

# experimental-parameters: in n-butanol, 318.15 K
measurement-name: solubility (mole fraction)

1) O=C(N[C@@H](Cc1c[nH]c2ccccc12)C(=O)O)OCc1ccccc1	0.0941

* * *

# experimental-parameters: in n-pentanol, 318.15 K
measurement-name: solubility (mole fraction)

1. O=C(N[C@@H](Cc1c[nH]c2ccccc12)C(=O)O)OCc1ccccc1	0.0631

* * *

# experimental-parameters: in ethyl acetate, 313.15 K
measurement-name: solubility (mole fraction)

1. O=C(N[C@@H](Cc1c[nH]c2ccccc12)C(=O)O)OCc1ccccc1	0.103

* * *

# experimental-parameters: in n-pentanol, 308.15 K
measurement-name: solubility (mole fraction)

1. O=C(N[C@@H](Cc1c[nH]c2ccccc12)C(=O)O)OCc1ccccc1	0.0458

* * *

# experimental-parameters: in isobutanol, 288.15 K
measurement-name: solubility (mole fraction)

1. O=C(N[C@@H](Cc1c[nH]c2ccccc12)C(=O)O)OCc1ccccc1	0.0123

* * *

# experimental-parameters: in ethyl acetate, 288.15 K
measurement-name: solubility (mole fraction)

1. O=C(N[C@@H](Cc1c[nH]c2ccccc12)C(=O)O)OCc1ccccc1	0.0559
